target: KRAS G12D-cRAF (Homo sapiens, UniProt P01116, G12D); construct: expressed in transfected cells; experiment: Cellular KRAS G12D-cRAF Binding Inhibition Assay (NanoBRET, AD293 stable cells); type: cell-based; details: 3 h incubation, read-out: NanoBRET KRAS G12D
Sequence (P01116 1-188 isoform P01116-2 G12D): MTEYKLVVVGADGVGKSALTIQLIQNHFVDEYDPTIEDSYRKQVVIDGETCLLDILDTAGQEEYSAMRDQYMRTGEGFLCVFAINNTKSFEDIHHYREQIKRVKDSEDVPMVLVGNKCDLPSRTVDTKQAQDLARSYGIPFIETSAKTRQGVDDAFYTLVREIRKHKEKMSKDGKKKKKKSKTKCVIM
attribute.measured: pIC50
Here pIC50 is given on a logarithmic scale as minus log10 of the concentration in mol/L.

molecule | pIC50
CCN1CCN(c2cnc3c(c2)-c2c4c5cc(ccc5n2CCCOC3C)-c2csc(n2)CC(NC(=O)C2CC2C)C(=O)N2CCCC(N2)C(=O)OCC(C)(C)C4)CC1 (centres unmarked) [Example 21] | 8.40
CC1CN(c2cnc3c(c2)-c2c4c5cc(ccc5n2CCCOC3C)-c2csc(n2)CC(NC(=O)C2CC2C(F)F)C(=O)N2CCCC(N2)C(=O)OCC(C)(C)C4)CC(C)O1 (centres unmarked) [Example 131] | 8.59
CC1OCCCn2c(c3c4cc(ccc42)-c2csc(n2)CC(NC(=O)C2CC2C(F)F)C(=O)N2CCCC(N2)C(=O)OCC(C)(C)C3)-c2cc(N3CCN(C4CN(C)C4)CC3)cnc21 (centres unmarked) [Example 108] | 8.21
CC1OCCCn2c(c3c4cc(ccc42)-c2csc(n2)CC(NC(=O)C24CC(C)(C2)C4)C(=O)N2CCCC(N2)C(=O)OCC(C)(C)C3)-c2cc(N3CCN(CC(F)F)CC3)cnc21 (centres unmarked) [Example 98] | 7.83
CC1OCCCn2c(c3c4cc(ccc42)-c2csc(n2)CC(NC(=O)C2CC2C(F)F)C(=O)N2CCCC(N2)C(=O)OCC(C)(C)C3)-c2cc(N3CCC(N4CCN(C)CC4)CC3)cnc21 (centres unmarked) [Example 102] | 8.38
CC1OCCCn2c(c3c4cc(ccc42)-c2csc(n2)CC(NC(=O)C2CC2C(F)F)C(=O)N2CCCC(N2)C(=O)OCC(C)(C)C3)-c2cc(N3CCS(=O)(=O)CC3)cnc21 (centres unmarked) [Example 133] | 8.04
CC1OCCCn2c(c3c4cc(ccc42)-c2csc(n2)CC(NC(=O)C2CC2C(F)F)C(=O)N2CCCC(N2)C(=O)OCC(C)(C)C3)-c2cc(N3CCN(C4CC4)CC3)cnc21 (centres unmarked) [Example 85] | 8.25
CC1OCCCn2c(c3c4cc(ccc42)-c2csc(n2)CC(NC(=O)C2C(C)C2C)C(=O)N2CCCC(N2)C(=O)OCC(C)(C)C3)-c2cc(N3CC(C)N(C)C(C)C3)cnc21 (centres unmarked) [Example 165] | 9.12

Specify reported pIC50 for the molecule shown: CC1OCCCn2c(c3c4cc(ccc42)-c2csc(n2)CC(NC(=O)C2CC2C(F)F)C(=O)N2CCCC(N2)C(=O)OCC(C)(C)C3)-c2cc(N3CCC4(CCN(C)CC4)CC3)cnc21 (centres unmarked) [Example 103]
8.11
